target: Recombinant human his-tagged IGF 1R extracellular domain protein (human) (UniProt P08069); assay: SPR, captured IgG, IGF-1R ECD-his analyte, dissociation pH 7.4
Field: koff. Provide a value for each of the binders that follow.
Output spec: scalar in s⁻¹, unitless text.

**Q:** Please look up its koff: VRDN-02511 (antibody, V domains shown) VH: EVQLVQSGGGLVKPGGSLRLSCAASGFTFSSFAMHWVRQAPGKGLEWISVIDHRGATYYADSVKGRFTISRDNAKNSLYLQMNSLRAEDTAVYYCARLGNFYYGMDVWGQGTTVTVSS VL: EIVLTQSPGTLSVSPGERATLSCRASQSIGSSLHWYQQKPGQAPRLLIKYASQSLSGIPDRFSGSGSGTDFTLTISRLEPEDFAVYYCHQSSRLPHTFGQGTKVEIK
**A:** 0.0319

**Q:** Try VRDN-02520 (antibody, V domains shown) VH: EVQLVQSGGGLVKPGGSLRLSCAASGFTFSSFAMHWVRQAPGKGLEWISVIDTRGATYYADSVKGRFTISRDNAKNSLYLQMNSLRAEDTAVYYCARLGHFYYGMDVWGQGTTVTVSS VL: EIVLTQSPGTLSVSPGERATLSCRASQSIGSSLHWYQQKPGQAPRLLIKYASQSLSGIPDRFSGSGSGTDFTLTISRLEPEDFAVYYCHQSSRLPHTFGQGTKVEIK next.
**A:** 1e-06

**Q:** Proceed to VRDN-02560 (antibody, V domains shown) VH: EVQLVQSGGGLVKPGGSLRLSCAASGFTFSSFHMHWVRQAPGKGLEWISVIDTRGATYYADSVKGRFTISRDNAKNSLYLQMNSLRAEDTAVYYCARLGNFYYHMDVWGQGTTVTVSS VL: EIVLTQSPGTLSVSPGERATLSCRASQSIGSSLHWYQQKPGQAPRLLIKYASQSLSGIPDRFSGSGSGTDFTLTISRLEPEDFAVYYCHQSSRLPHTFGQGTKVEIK
**A:** 0.0336
